Test system: MS2 coat protein
Assay: apparent Kd, MS2 coat protein; higher = weaker binding; RNA-MaP array; FMN 200 µM where present
Details: designed as: OFF switch for flavin mononucleotide; no ligand
Would you mind sorting the entries by apparent Kd according to these classes? lower bin = under 30 nM, middle bin = from 30 nM up to 80 nM, upper bin = 80 nM and over

Look over these answered cases.
item_sequence=UGUCGGAGCAGAGGAUAUUACAUGAGGAUCACCCAUGUAUGAACCAAUAGCUGGGAACAGCAAUGUAAGAAGGCUGCUCCGACA test_target="MS2 coat protein" assigned_label="lower bin"
item_sequence=UGUGUGAGACAGGAUAUGCCGGUUGUAUUGCUGGUAGAAGGGUCUACAUGAGGAUCACCCAUGUGGCCGGUUGG test_target="MS2 coat protein" assigned_label="lower bin"
item_sequence=CGAUAUUAUGCAGGAUAUCUAUCUUGAAUGAGGAGAGAAGGGCAUAGGGAGACAUAAGCCUUAUUACAUGAGGAUCACCCAUGU test_target="MS2 coat protein" assigned_label="lower bin"
item_sequence=ACGACGAAAGUCGAACGAUGUAGCAGAAGGACAUGAGGAUCACCCAUGUAAAAUGUAACAGCCAUGUAGGAUAUGCUACAUCGA test_target="MS2 coat protein" assigned_label="middle bin"

Into which category would you place CCUGAGUCAGGAUAUUGUACCGGCCUGAAGCCAGGCCGGCCCAAGAAGGGACAUGAGGAUCACCCAUGUGAAAA ?
middle bin

Into which category would you place GCCUAGCUAGGAUAUACCCAGGGUUUGUUCUCUAACGACACACAUGAGGAUCACCCAUGUAGAAGGAGCCGGGA ?
middle bin
